// provenance: ChEMBL document CHEMBL1155010

So I've got a bunch of molecules here, and I need their logD values.
assay: Lipophilicity, log p at pH 7.5; format: physicochemical; details: buffer

Asked: Would you kindly share the measured logD for `CCN(CC)C(=O)Cc1c(-c2ccc(OCCCF)cc2)nc2ccc(Cl)cn12` ?
Given back: 3.2

Asked: Request: `CCN(CC)C(=O)Cc1c(-c2ccc(OCCF)cc2)nn2c(C)cc(C)nc12`
Given back: 2.5

Asked: # repeat for `CCN(CC)C(=O)Cc1c(-c2ccc(OCCCF)cc2)nn2c(C)cc(C)nc12`
Given back: 3.2

Asked: Could you do the same for `CCN(CC)C(=O)Cc1c(-c2ccc(OCCF)cc2)nc2ccc(Cl)cn12` , please?
Given back: 2.7

====

tested on: Lung; experiment: Biodistribution in Sprague-Dawley rat lungs assessed per gram of tissue at 1 MBq, iv after 0.25 hrs; format: ADME, organism-based; conditions: in vivo
readout: Drug uptake (%ID)
Field format: number, assumed %ID, no unit text.

Asked: Look up Drug uptake: `CCN(CC)C(=O)Cc1c(-c2ccc(OCC[18F])cc2)nn2c(C)cc(C)nc12`
Given back: 14.6

Asked: Next compound up: `CCN(CC)C(=O)Cc1c(-c2ccc(OCCC[18F])cc2)nc2ccc(Cl)cn12`
Given back: 12.3

Asked: What about this compound? `CCN(CC)C(=O)Cc1c(-c2ccc(OCCC[18F])cc2)nn2c(C)cc(C)nc12`
Given back: 20

Asked: Lookup `CCN(CC)C(=O)Cc1c(-c2ccc(OCC[18F])cc2)nc2ccc(Cl)cn12`
Given back: 14.3

====

tested on: Spleen; experiment: Biodistribution in Sprague-Dawley rat spleen assessed per gram of tissue at 1 MBq, iv after 4 hrs; format: ADME, organism-based; conditions: in vivo
Please go through the items and note down their Drug uptake.
# value in %ID; strip the unit string

Asked: Missing value: Drug uptake, Spleen, entry `CCN(CC)C(=O)Cc1c(-c2ccc(OCC[18F])cc2)nc2ccc(Cl)cn12` . Fill in?
Given back: 1.9

Asked: Another: CCN(CC)C(=O)Cc1c(-c2ccc(OCC[18F])cc2)nn2c(C)cc(C)nc12 [DPA-714 F-18]
Given back: 3.9

Asked: Then `CCN(CC)C(=O)Cc1c(-c2ccc(OCCC[18F])cc2)nn2c(C)cc(C)nc12` ?
Given back: 3.6

Asked: Can you handle `CCN(CC)C(=O)Cc1c(-c2ccc(OCCC[18F])cc2)nc2ccc(Cl)cn12` next?
Given back: 2.5

====

test system: Spleen; assay: Biodistribution in Sprague-Dawley rat spleen assessed per gram of tissue at 1 MBq, iv after 1 hr; type: ADME, organism-based; conditions: in vivo
Give Drug uptake for every item shown.
Number only, in %ID; omit the unit.

Asked: If you can, please state the reported Drug uptake value of `CCN(CC)C(=O)Cc1c(-c2ccc(OCC[18F])cc2)nc2ccc(Cl)cn12` .
Given back: 3.4

Asked: Now consider `CCN(CC)C(=O)Cc1c(-c2ccc(OCCC[18F])cc2)nn2c(C)cc(C)nc12` .
Given back: 5.1

Asked: Another compound to look at: `CCN(CC)C(=O)Cc1c(-c2ccc(OCCC[18F])cc2)nc2ccc(Cl)cn12`
Given back: 4.5

Asked: For CCN(CC)C(=O)Cc1c(-c2ccc(OCC[18F])cc2)nn2c(C)cc(C)nc12 [DPA-714 F-18] then?
Given back: 4.5
